test: binders of probe aHhip on microarray, primary screen, stem cell growth factor project, biochemical, small-molecule microarray, fluorescence 635/667 (AID 1087);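 note: score merges spot fluorescence at 667nm with spot signal to noise ratio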
run parameters: higher = more signal
Records here are stratified by composite z-score; strata: bin 0 (below -0.03), bin 1 (-0.03 to below 0.2), bin 2 (0.2 or more)

Look over these answered cases.
>>> class_assignment("COCCOC(=O)N1C(=O)[C@@]2(c3cc(C#Cc4ccc(OC)cc4)ccc31)[C@H](C(=O)N1CCCCCCC1)[C@H]1C(=O)O[C@H](c3ccccc3)[C@H](c3ccccc3)N1[C@@H]2c1ccc(OCCO)cc1")
"bin 2"
>>> class_assignment("COCCOC(=O)N1C(=O)[C@@]2(c3cc(C#CC4=CCCCC4)ccc31)[C@H](C(=O)Nc1nc3ccccc3s1)[C@H]1C(=O)O[C@H](c3ccccc3)[C@H](c3ccccc3)N1[C@@H]2c1ccccc1OCCO")
"bin 2"
>>> class_assignment("CN1C(=O)C2C=CC(C(O)c3ccccc3)N(Nc3ccccc3)C2C1=O (configuration not stated)")
"bin 0"
>>> class_assignment("O=C1O[C@H](c2ccccc2)[C@H](c2ccccc2)N2[C@H]1[C@@H](C(=O)NC[C@H](O)c1ccccc1)[C@]1(C(=O)Nc3ccccc31)[C@H]2c1ccc(OCCO)cc1")
"bin 1"
>>> class_assignment("CC(C)(C)OC(=O)CC[C@@]12N=C(c3ccc(OCCCO)cc3)O[C@@H]1c1ccccc1N(CCS(=O)(=O)c1ccccc1)C2=O")
"bin 1"
>>> class_assignment("[N-]=[N+]=NCc1ccccc1C[C@@]1(C(=O)NCC(O)CO)N=C(c2ccc(OCCCO)cc2)O[C@@H]1c1ccccc1N=[N+]=[N-] (some centres not stated)")
"bin 1"
>>> class_assignment("C=CCOC(=O)[C@@H]1[C@H]2C(=O)O[C@H](c3ccccc3)[C@H](c3ccccc3)N2[C@H](c2ccc(OCCOC(=O)[C@@H]3C[C@@H]4C(=O)N[C@@H](Cc5ccccc5)C(=O)N4[C@@H]3c3ccc(O)cc3)cc2)[C@@]12C(=O)Nc1ccc(I)cc12")
"bin 2"
>>> class_assignment("C=CCNC(=O)[C@H]1[C@@H]2C(=O)O[C@@H](c3ccccc3)[C@@H](c3ccccc3)N2[C@@H](c2ccc(OCCO)cc2)[C@]12C(=O)N(C(=O)OCCOC)c1ccccc12")
"bin 2"
>>> class_assignment("C#CCN(CC1=CCCCC1)[C@H](c1ccccc1Br)[C@@H](O)Cc1ccccc1")
"bin 0"
>>> class_assignment("COC(=O)C(CC#Cc1ccc2c(c1)[C@]1(C(=O)N2)[C@H](c2ccc(O)cc2)N2[C@H](c3ccccc3)[C@H](c3ccccc3)OC(=O)[C@H]2[C@@H]1C(=O)Nc1nc2ccccc2s1)C(=O)OC")
"bin 0"

# input for lookup
Categorize the following entry: `COC(=O)[C@@]1(Cc2ccc(F)cc2)[C@H]2c3cc(C(=O)N(C)C)n(Cc4ccc(S(C)(=O)=O)cc4)c3C[C@H]2CN1C(=O)c1ccccc1`
bin 1
